Provenance of the data: ChEMBL document CHEMBL1201862

System: SF-295
assay.text: NCI tumour cell line growth inhibition, 48 h
The source made the active and inactive calls. No stated cut-off is given here; in the data, active = GI50 up to about 1.1 µM and inactive = higher.
property.label: GI50

molecule	subject.of.test	recorded.value
CC1(C)O[C@@H]2C[C@H]3[C@@H]4C[C@H](F)C5=CC(=O)C=C[C@]5(C)[C@@]4(F)[C@@H](O)C[C@]3(C)[C@]2(C(=O)CO)O1 [FLUOCINOLONE ACETONIDE]	SF-295	> 100 µM (inactive)
O=C1C(c2c(O)[nH]c3ccc(S(=O)(=O)O)cc23)=Nc2ccccc21	SF-295	> 100 µM (inactive)
CN(C)CCCNC(=O)c1cc2/c(=C\c3ccc(N(C)C)cc3)c3ccccc3n2[n+]1C	SF-295	40.3 µM (inactive)
Cn1c(SCc2ccc([N+](=O)[O-])cc2)nnc1C12CC3CC(CC(C3)C1)C2	SF-295	> 10 µM (inactive)
